Kindly supply the reported Kd values for the records listed here.
TARGET OF ASSAY: T1, EsCas13d, nuclease-dead (Eubacterium siraeum, UniProt B0MS50, R295A;H300A;R849A;H854A)
T1 sequence: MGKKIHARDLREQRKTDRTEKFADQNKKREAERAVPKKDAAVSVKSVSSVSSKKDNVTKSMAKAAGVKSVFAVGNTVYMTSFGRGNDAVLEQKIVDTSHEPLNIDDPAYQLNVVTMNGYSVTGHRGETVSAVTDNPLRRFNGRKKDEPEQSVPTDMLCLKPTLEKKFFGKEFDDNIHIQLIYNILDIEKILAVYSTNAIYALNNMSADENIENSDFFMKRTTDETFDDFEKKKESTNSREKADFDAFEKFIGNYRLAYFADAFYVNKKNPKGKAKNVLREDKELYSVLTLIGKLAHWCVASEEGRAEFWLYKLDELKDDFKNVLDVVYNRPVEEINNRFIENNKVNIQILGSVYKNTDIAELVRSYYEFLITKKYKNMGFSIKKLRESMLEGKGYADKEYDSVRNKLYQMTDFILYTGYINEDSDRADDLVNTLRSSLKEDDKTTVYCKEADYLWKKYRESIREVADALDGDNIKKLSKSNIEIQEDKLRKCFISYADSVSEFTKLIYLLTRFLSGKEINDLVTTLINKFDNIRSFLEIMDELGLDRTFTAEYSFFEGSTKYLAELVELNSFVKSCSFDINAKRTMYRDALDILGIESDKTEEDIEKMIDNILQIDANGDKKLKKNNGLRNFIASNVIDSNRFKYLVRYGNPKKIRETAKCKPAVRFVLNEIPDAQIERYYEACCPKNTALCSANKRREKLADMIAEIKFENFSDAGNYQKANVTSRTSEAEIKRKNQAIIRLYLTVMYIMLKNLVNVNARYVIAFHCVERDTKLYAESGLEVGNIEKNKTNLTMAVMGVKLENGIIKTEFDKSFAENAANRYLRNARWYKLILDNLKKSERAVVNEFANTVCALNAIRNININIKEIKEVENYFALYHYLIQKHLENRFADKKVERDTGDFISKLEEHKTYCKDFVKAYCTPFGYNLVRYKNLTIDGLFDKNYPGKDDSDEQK
PROTOCOL DETAILS: crRNA (strand 1, pre-loaded); Mg2+; 40 mM Tris-HCl pH 7.5, 150 mM NaCl, 6 mM MgCl2, 1 mM DTT, 0.1% Tween-20, 0.2 mg/ml BSA; 25 C; 10 min per concentration, then washed
CONDITION SUMMARY: tags: His6-TwinStrep-SUMO cleaved; N-terminal SNAP kept (SNAP-Surface 488); label: 3' end held by stalled T7 RNA polymerase
Numbers only, in µM.

Below, each entry is followed by its recorded Kd result.
# input binder: target 2 MT 5'PFS GAC 3'PFS UCC (mixed) RNA 1: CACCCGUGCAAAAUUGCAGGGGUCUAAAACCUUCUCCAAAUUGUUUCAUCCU RNA 2: GGGAAUGGAUCCACAUCUACGAAUUCGACAGGAUGAAACAAUUUGGAGAAGUCCAGAUCGGAAGAGCACACGU ; wanted: its Kd
0.05

# input binder: target 1 insU 3' of 6,insG 3' of 1 (mixed) RNA 1: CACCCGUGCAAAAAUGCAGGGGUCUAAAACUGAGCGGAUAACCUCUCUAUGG RNA 2: GGGAAUGGAUCCACAUCUACGAAUUCGUACCAUAGAGAGGUUAUCCUGCUCAGCCGAGAUCGGAAGAGCACACGU ; wanted: its Kd
0.0125

# input binder: target 2 MT 5'PFS ACA 3'PFS UAU (mixed) RNA 1: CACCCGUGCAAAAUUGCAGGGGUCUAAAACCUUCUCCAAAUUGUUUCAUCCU RNA 2: GGGAAUGGAUCCACAUCUACGAAUUCACAAGGAUGAAACAAUUUGGAGAAGUAUAGAUCGGAAGAGCACACGU ; wanted: its Kd
0.0051

# input binder: target 1 G5A,C7A (mixed) RNA 1: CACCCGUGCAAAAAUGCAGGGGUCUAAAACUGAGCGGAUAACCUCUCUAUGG RNA 2: GGGAAUGGAUCCACAUCUACGAAUUCGUACCAUAGAGAGGUUAUACACUCACCGAGAUCGGAAGAGCACACGU ; wanted: its Kd
0.0103

# input binder: target 1 C4A,C7U (mixed) RNA 1: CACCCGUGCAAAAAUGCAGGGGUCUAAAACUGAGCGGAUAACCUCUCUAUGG RNA 2: GGGAAUGGAUCCACAUCUACGAAUUCGUACCAUAGAGAGGUUAUUCGAUCACCGAGAUCGGAAGAGCACACGU ; wanted: its Kd
0.00339

For every listed record, write down its Kd.
1. target 1 MT 5'PFS UAU 3'PFS ACU (mixed) RNA 1: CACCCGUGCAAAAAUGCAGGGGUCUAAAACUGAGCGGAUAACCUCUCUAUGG RNA 2: GGGAAUGGAUCCACAUCUACGAAUUCUAUCCAUAGAGAGGUUAUCCGCUCAACUAGAUCGGAAGAGCACACGU
2. target 1 insC 3' of 10,insA 3' of 2 (mixed) RNA 1: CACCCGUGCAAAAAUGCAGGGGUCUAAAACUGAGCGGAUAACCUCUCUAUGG RNA 2: GGGAAUGGAUCCACAUCUACGAAUUCGUACCAUAGAGAGGUUCAUCCGCUCAACCGAGAUCGGAAGAGCACACGU

1: 0.029; 2: 0.0194
